src = patent US20030068615A1

The sequences listed here are annotated with their radioactive counts recorded in twenty minutes.
target: HIV-1LAI envelope gp120 (Human immunodeficiency virus type 1 group M subtype B); format: binding; settings: STRL33 18-mer scan; background subtracted; first of two count columns
// units = counts; emit number, no label

For orientation, consider the following solved cases.
- construct_sequence: "EAISTVVLATQMTLGFFL [STRL33 segment 185-202]"
  study_system: "HIV-1LAI envelope gp120 (Human immunodeficiency virus type 1 group M subtype B)"
  result: 3973.5
- construct_sequence: "IFYHKLQSLTDVFLVNLP [STRL33 segment 57-74]"
  study_system: "HIV-1LAI envelope gp120 (Human immunodeficiency virus type 1 group M subtype B)"
  result: 1275.5
- construct_sequence: "DLVFVCTLPFWAYAGIHE [STRL33 segment 77-94]"
  study_system: "HIV-1LAI envelope gp120 (Human immunodeficiency virus type 1 group M subtype B)"
  result: 1116.5
- construct_sequence: "KLICGYHDEAISTVVLAT [STRL33 segment 177-194]"
  study_system: "HIV-1LAI envelope gp120 (Human immunodeficiency virus type 1 group M subtype B)"
  result: 1363.5
- construct_sequence: "MTWGKVTSLLIWVISLLV"
  study_system: "HIV-1LAI envelope gp120 (Human immunodeficiency virus type 1 group M subtype B)"
  result: "−0.5"
- construct_sequence: "LVISIFYHKLQSLTDVFL [STRL33 segment 53-70]"
  study_system: "HIV-1LAI envelope gp120 (Human immunodeficiency virus type 1 group M subtype B)"
  result: 1620.5

Please give the measured radioactive counts recorded in twenty minutes for this sequence: SSFNDSSQEEHQAFLQFS [STRL33 segment 13-30] 2689.5

Please give the measured radioactive counts recorded in twenty minutes for this sequence: YGNVFNLDKLICGYHDEA −41.5

Please give the measured radioactive counts recorded in twenty minutes for this sequence: FLPLLTMIVCYSVIIKTL 1270.5

Please give the measured radioactive counts recorded in twenty minutes for this sequence: KNFWKLVKDIGCLPYLGV [STRL33 segment 297-314] 143.5

Please give the measured radioactive counts recorded in twenty minutes for this sequence: ACLNPVLYAFVSLKFRKN [STRL33 segment 281-298] 4173.5

Please give the measured radioactive counts recorded in twenty minutes for this sequence: SLKIIFLVMAVFLLTQMP [STRL33 segment 229-246] 612.5

###

molecular target: HIV-1LAI envelope gp120 (Human immunodeficiency virus type 1 group M subtype B, UniProt P03377); assay type: binding; conditions: CXCR4 18-mer scan; background subtracted, empty control 0
metric_name: radioactive counts recorded in twenty minutes (counts)
// units = counts; emit number, no label

For orientation, consider the following solved cases.
- construct_sequence: "ICDRFYPNDLWVVVFQFQ [CXCR4 segment 185-202]"
  units_text: "counts"
  result: 306
- construct_sequence: "YQKKLRSMTDKYRLHLSV [CXCR4 segment 65-82]"
  units_text: "counts"
  result: 99
- construct_sequence: "AIVHATNSQRPRKLLAEK [CXCR4 segment 137-154]"
  units_text: "counts"
  result: 73
- construct_sequence: "MEGISIYTSDNYTEEMGS"
  units_text: "counts"
  result: 2591
- construct_sequence: "SKGHQKRKALKTTVILIL [CXCR4 segment 229-246]"
  units_text: "counts"
  result: 140

Please give the measured radioactive counts recorded in twenty minutes for this sequence: YDSMKEPCFREENANFNK [CXCR4 segment 21-38] 53

Please give the measured radioactive counts recorded in twenty minutes for this sequence: TDKYRLHLSVADLLFVIT [CXCR4 segment 73-90] 92

Please give the measured radioactive counts recorded in twenty minutes for this sequence: SDNYTEEMGSGDYDSMKE [CXCR4 segment 9-26] 43

Please give the measured radioactive counts recorded in twenty minutes for this sequence: IPDFIFANVSEADDRYIC 438

Please give the measured radioactive counts recorded in twenty minutes for this sequence: SIYTSDNYTEEMGSGDYD [CXCR4 segment 5-22] 71

Please give the measured radioactive counts recorded in twenty minutes for this sequence: IDSFILLEIIKQGCEFEN [CXCR4 segment 261-278] 3472

Please give the measured radioactive counts recorded in twenty minutes for this sequence: KEPCFREENANFNKIFLP [CXCR4 segment 25-42] 252

Please give the measured radioactive counts recorded in twenty minutes for this sequence: ENTVHKWISITEALAFFH [CXCR4 segment 277-294] 315

Please give the measured radioactive counts recorded in twenty minutes for this sequence: IIKQGCEFENTVEKWISI [CXCR4 segment 269-286] 106

Please give the measured radioactive counts recorded in twenty minutes for this sequence: TEEMGSGDYDSMKEPCFR [CXCR4 segment 13-30] 41

Please give the measured radioactive counts recorded in twenty minutes for this sequence: KRGGHSSVSTESESSSFH [CXCR4 segment 333-350] 167

Please give the measured radioactive counts recorded in twenty minutes for this sequence: SCYCIIISKLSHSKGHQK 259

Please give the measured radioactive counts recorded in twenty minutes for this sequence: LTSVSRGSSLKILSKGKR 183

Please give the measured radioactive counts recorded in twenty minutes for this sequence: SVADLLFVITLPFWAVDA [CXCR4 segment 81-98] 253

Please give the measured radioactive counts recorded in twenty minutes for this sequence: WIPALLLTIPDFIFANVS 182

Please give the measured radioactive counts recorded in twenty minutes for this sequence: LYAFLGAKFKTSAQHALT [CXCR4 segment 301-318] 156

Please give the measured radioactive counts recorded in twenty minutes for this sequence: LRSMTDKYRLHLSVADLL [CXCR4 segment 69-86] 160

Please give the measured radioactive counts recorded in twenty minutes for this sequence: NANFNKIFLPTIYSIIFL [CXCR4 segment 33-50] 173

Please give the measured radioactive counts recorded in twenty minutes for this sequence: GSGDYDSMKEPCFREENA [CXCR4 segment 17-34] −28

Please give the measured radioactive counts recorded in twenty minutes for this sequence: KLSHSKGHQKRKALKTTV [CXCR4 segment 225-242] 130
